experiment: Clearance in rhesus monkey; assay type: ADME, organism-based, Macaca mulatta; conditions: in vivo
assay_metric: clearance (mL/min/kg)
# value in mL/min/kg; strip the unit string

INPUT: Answer with the recorded clearance for the compound listed here: CC(C)[C@@](O)(C(=O)N1CCC(C2CCN(c3ccc(C(=O)N(C)C)c(Cl)c3)CC2)CC1)C(F)(F)F
OUTPUT: 18

---

Each entry below carries its reported EC50.
Biological target: Oxysterols receptor LXR-beta (Homo sapiens)
Sequence (P55055 whole entry): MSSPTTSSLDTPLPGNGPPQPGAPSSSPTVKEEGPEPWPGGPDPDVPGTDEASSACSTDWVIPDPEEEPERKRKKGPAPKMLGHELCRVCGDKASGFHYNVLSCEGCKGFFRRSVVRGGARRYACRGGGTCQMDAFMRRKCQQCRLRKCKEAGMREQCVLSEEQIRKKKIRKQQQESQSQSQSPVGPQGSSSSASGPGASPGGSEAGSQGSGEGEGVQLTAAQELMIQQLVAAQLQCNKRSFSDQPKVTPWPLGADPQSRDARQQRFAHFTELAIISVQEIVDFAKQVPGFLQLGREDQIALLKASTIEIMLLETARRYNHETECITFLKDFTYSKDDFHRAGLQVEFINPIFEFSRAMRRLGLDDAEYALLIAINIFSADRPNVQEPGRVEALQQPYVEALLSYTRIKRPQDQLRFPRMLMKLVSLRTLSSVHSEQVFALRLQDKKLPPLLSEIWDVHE
Assay: Agonist activity at LXRbeta (unknown origin) expressed in human H4 cells co-expressing ABCA1 promoter measured after 48 hrs by cell-based transactivation assay
# value in nM; strip the unit string

Recorded EC50, per entry:
| compound_structure_string | unit_text | EC50 |
| --- | --- | --- |
| CN(C)C(=O)c1ccc(-c2cnc(N3CCN(C(=O)[C@](O)(c4ccccc4)C(F)(F)F)CC3)c(C#N)c2)cc1Cl | nM | 7 |
| CC(C)[C@](O)(C(=O)N1CCC(C2CCN(c3ccc(C(=O)N(C)C)c(Cl)c3)CC2)CC1)C(F)(F)F | nM | 840 |
| CN(C)C(=O)c1ccc(N2CCC(C3CCN(C(=O)[C@](O)(c4ccccc4)C(F)(F)F)CC3)CC2)cc1Cl | nM | 550 |

We now examine a further compound.
INPUT: Answer with the recorded EC50 for the compound listed here: CN(C)C(=O)c1ccc(-c2cnc(N3CCN(C(=O)OC(C)(C)C)CC3)c(C#N)c2)cc1Cl
OUTPUT: 770
